EXPERIMENT: ATG_CRE_CIS: Attagene CIS-FACTORIAL HepG2 Assay for human cAMP Responsive Element (CRE) binding protein 3 (AID 2282926)
SETUP_CONDITIONS: HepG2 CRE cis-reporter, Attagene multiplexed mRNA; actives raise or lower the signal
The source made the active and inactive calls. The calls were made as follows: active = hit-call score of the fitted dose curve at least 0.9, where 1 is the maximum; inactive = score below 0.9.
Please state which outcome applies, choosing from true (1) for active, false (0) for inactive

A selection of reference data follows.
>>> print(df.to_string())
                                   compound  group_label
0  C[C@]12CC[C@H]3[C@@H](CC[C@@]45O[C@@H]4C(O)=C(C#N)C[C@]35C)[C@@H]1CC[C@@H]2O    false (0)
1  CCC(C)c1cc(C(C)(C)C)cc(-n2nc3ccccc3n2)c1O (centres undefined)    false (0)
2  CCC(C)c1cc([N+](=O)[O-])cc([N+](=O)[O-])c1OC(=O)C=C(C)C (centres undefined)    false (0)
3  O=c1c2ccccc2c(=O)c2c1cc(Cl)c1[nH]c3c([nH]c12)c(Cl)cc1c(=O)c2ccccc2c(=O)c13    false (0)
4                       CCCCCc1cc(O)cc(O)c1    false (0)

With those in mind, consider the next compound.
Please share the test call associated with `C[N+](C)(C)CC(=O)O` .
false (0)
